# Tested on: EKVX
# Procedure Text: Growth inhibition of human EKVX cells assessed as reduction in cell viability measured after 48 hrs by SRB assay
# Type: functional
Let's look at some compounds and their measured GI50.
Readout Label: GI50

>>> result("O=C1c2ccccc2-c2n[nH]c3cccc1c23")
"20 µM"
>>> result("CC(C)(C)n1cc(-c2ccnc(NCCCNS(=O)(=O)c3ccc(Cl)cc3)c2)c(-c2cccc(O)c2)n1")
"2.04 µM"
>>> result("CC(C)(C)n1cc(-c2ccnc(NCCCNS(=O)(=O)c3cccc4ccccc34)c2)c(-c2cccc(O)c2)n1")
"2.13 µM"
>>> result("CC(C)(C)n1cc(-c2ccnc(NCCCNS(=O)(=O)c3ccc(C(F)(F)F)cc3)c2)c(-c2cccc(O)c2)n1")
"1.82 µM"
>>> result("CC(C)(C)n1cc(-c2ccnc(NCCCNS(=O)(=O)c3ccc(Br)cc3)c2)c(-c2cccc(O)c2)n1")
"1.95 µM"
